# protocol_details: CellTiter-Glo luminescent readout of SW480 viability loss, NPC library primary (AID 1117343)
# test_settings: CellTiter-Glo luminescence; at 20 µM (top of the series) unless noted
Where a SMILES comes first, the peptide text is derived from it. [ ]: non-standard residue; d: D form. The star is where a group is joined. Sta = CC(C)C[C@H](N)[C@@H](O)CC(=O)O; Isovaleryl = CC(C)CC(=O)*
Mark each entry T if its viability decrease (inhibition) sits below 40%, and F for all others.

{"compound": "O=S(=O)(O)CCCS(=O)(=O)O", "answer_label": "T"}

Request: Decide: viability decrease (inhibition) of `CC(=O)N[C@@H](CCC(N)=O)C(=O)O` strictly below 40%?
Response: T

Request: Decide: viability decrease (inhibition) of CC(C)CC(=O)N[C@H](C(=O)N[C@H](C(=O)N[C@@H](CC(C)C)[C@@H](O)CC(=O)N[C@@H](C)C(=O)N[C@@H](CC(C)C)[C@@H](O)CC(=O)O)C(C)C)C(C)C (Isovaleryl-VV[Sta]A[Sta]-OH) strictly below 40%?
Response: T

----------
Provide the recorded inhibition for the entries that follow.
# experimental_system: L-lactate dehydrogenase (Plasmodium falciparum (isolate CDC / Honduras)) (UniProt Q27743)
# Sequence (Q27743 whole entry, looked up): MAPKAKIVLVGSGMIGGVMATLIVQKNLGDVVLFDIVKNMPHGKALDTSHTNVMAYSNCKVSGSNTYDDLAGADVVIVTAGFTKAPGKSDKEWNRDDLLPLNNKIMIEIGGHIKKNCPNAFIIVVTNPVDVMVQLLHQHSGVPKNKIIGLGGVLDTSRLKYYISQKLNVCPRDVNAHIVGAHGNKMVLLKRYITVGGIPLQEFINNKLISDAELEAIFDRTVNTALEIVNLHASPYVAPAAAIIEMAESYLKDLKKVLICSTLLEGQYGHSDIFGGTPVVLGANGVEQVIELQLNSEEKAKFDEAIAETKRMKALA
# protocol_details: PfLDH activity inhibition – cell lysate, 3D7 strain, counter-screen for P. falciparum growth inhibition project (AID 2304);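 note: 0% = vehicle and 100% = reference inhibitor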
# test_settings: P. falciparum 3D7 crude extract, LDH APAD/NBT absorbance; at 2 µM; active compounds read high
Give bare numbers, in %.

Consider the reported inhibition for these molecules:
{"molecule": "O=C(NC1CC1)c1ccc(Cn2c(SCc3cccc(Cl)c3)nc3ccccc3c2=O)cc1", "inhibition (%)": 1}
{"molecule": "Cc1cc(NN=Cc2ccc(Cl)cc2)c2ccccc2n1", "inhibition (%)": -3}
{"molecule": "CC(C)(CNC(=O)[C@@H]1CCCN(Cc2ccc(Cl)cc2)C1)c1nc(-c2ccc(Cl)c(O)c2)c(-c2ccncc2)[nH]1", "inhibition (%)": -2}

Please go through the list and note inhibition for each molecule.
1. CC1CN(Cc2cccc(-c3ccc(-c4nc5ccc(F)cc5[nH]4)cc3)c2)CC(C)O1 (stereo not given)
2. NC1=NC(c2ccccc2)(c2ccccc2)C(=O)N1CC1CCC1

Response:
[-3, 3]

Please go through the list and note inhibition for each molecule.
1. O=C(Nc1cccc(-c2ccc(-c3nc4ccc(F)cc4[nH]3)cc2)c1)c1cccnc1
2. COc1ccc(CN(C)CCCSc2ccc(NC(=O)c3cccc4c(=O)cc(-c5ccccc5)[nH]c34)cc2)cc1OC
3. COc1ccc(Cl)cc1N1CCN(CCCNC(=O)c2ccc(-c3nc4cc5ccccc5cc4[nH]3)c(F)c2)CC1
4. CCc1cc2c(N)nc(N)nc2nc1-c1ccccc1
5. COc1ccc(Cl)cc1NC(=O)Nc1cc(C)nc2ccccc12

Response:
-4
-6
-3
6
-3

----------
# protocol_details: glucagon-like peptide 1 release enhancers, primary assay, NCI-H716 cell line, NPC library (AID 1117341); note: reference of the scale not given here
# test_settings: NCI-H716 cells, at 10 µM, active compounds read high
measurement_type: GLP1 secretion stimulation (%)
Give bare numbers, in %.

Consider the reported GLP1 secretion stimulation for these molecules:
{"molecule": "N[C@H]1C(O)O[C@H](CO)[C@@H](O)[C@@H]1O (stereo partly specified)", "measurement_type": "GLP1 secretion stimulation", "measured_result": -0.8}
{"molecule": "CN1CCN(c2c(F)cc3c(=O)c(C(=O)O)cn(CCF)c3c2F)CC1", "measurement_type": "GLP1 secretion stimulation", "measured_result": 7.1}
{"molecule": "Cc1ccc(=O)n(-c2ccccc2)c1", "measurement_type": "GLP1 secretion stimulation", "measured_result": -2}
{"molecule": "NCCCC(N)(C(=O)O)C(F)F (stereo unspecified)", "measurement_type": "GLP1 secretion stimulation", "measured_result": 2.8}

Please go through the list and note GLP1 secretion stimulation for each molecule.
1. CC(C)=CCC[C@@](C)(O)[C@H]1CC=C(C)CC1
2. CS(=O)(=O)CCNCc1ccc(-c2ccc3ncnc(Nc4ccc(OCc5cccc(F)c5)c(Cl)c4)c3c2)o1

Response:
[2.7, 2.8]

----------
# protocol_details: ovarian cancer cell viability with rucaparib, profiling panel, oncology-focused library, rucaparib conditional (AID 1508598)
# test_settings: patient-derived ovarian cancer cells, CellTiter-Glo viability, 144 h; at 0.00122 µM; OCI-P5x cells; without rucaparib; active compounds read low
measurement_type: viability (%)
One number for each entry, in %.

Consider the reported viability for these compounds:
{"structure": "COc1nc(N)nc2c1ncn2[C@@H]1O[C@H](CO)[C@@H](O)[C@@H]1O", "measurement_type": "viability", "u": "%", "measured_result": 105}
{"structure": "COc1c(C)c2c(c(O)c1C/C=C(\\C)CCC(=O)O)C(=O)OC2", "measurement_type": "viability", "u": "%", "measured_result": 103}
{"structure": "C#Cc1cccc(Nc2ncnc3cc(OCCOC)c(OCCOC)cc23)c1", "measurement_type": "viability", "u": "%", "measured_result": 96.4}

Please go through the list and note viability for each compound.
1. O=C(CCc1ccc(O)cc1)c1c(O)cc(O)cc1O
2. CNC(=O)c1cc(Oc2ccc(NC(=O)Nc3ccc(Cl)c(C(F)(F)F)c3)cc2)ccn1
3. CC(C)n1c(/C=C/[C@@H](O)C[C@@H](O)CC(=O)O)c(-c2ccc(F)cc2)c2ccccc21

Response:
99.2
99.4
88.8

----------
# protocol_details: inhibition of endothelial tube formation, primary screen, imaging, VEGF stimulated, CD31 staining, tube area, NPC library (AID 1117340)
# test_settings: VEGF-stimulated ADSC/ECFC co-culture, at 10 µM
Activity calls are given as the source filed them.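 How the source made its calls: active means compound that reduces growth-factor-driven endothelial tube area in a mixed cell culture, no cutoff stated; inactive means the rest.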
Output constraint: value belongs to active, inactive

Before answering, review these 3 worked examples.
{"compound": "NC(CO)(CO)CO", "answer_label": "inactive"}
{"compound": "CN1CCC(Nc2ncc3ncnc(Nc4ccc(F)c(Cl)c4)c3n2)CC1", "answer_label": "inactive"}
{"compound": "CCCCc1oc2ccc(NS(C)(=O)=O)cc2c1C(=O)c1ccc(OCCCN(CCCC)CCCC)cc1", "answer_label": "active"}

Request: Record request — test call for `C=CCc1cc(OC)c(O)c(C(=O)NCCO)c1`
Response: inactive

Request: Record request — test call for `CCN(CC)CC(=O)Nc1c(C)cc(C)cc1C`
Response: inactive

Request: Record request — test call for Cc1cc2c(OCC(CNC(C)(C)C)OC(=O)c3ccccc3)cccc2[nH]1 (centres undefined)
Response: inactive

Request: Record request — test call for `CC#C[C@]1(O)CC[C@H]2[C@@H]3CCC4=CC(=O)CCC4=C3[C@@H](c3ccc(N(C)C)cc3)C[C@@]21C`
Response: inactive

Request: Record request — test call for `OCCc1ccccc1`
Response: inactive

----------
# protocol_details: phospholipid biosynthesis inhibitors in animal cells, primary screen, cell-based, LOPAC library, screen 4 (AID 1347384)
# test_settings: phospholipid biosynthesis inhibition screen, at 10 µM
Active and inactive are the calls of the source. The rule behind the calls is not given here.
Output constraint: value belongs to active, inactive

Before answering, review these 5 worked examples.
{"molecule": "O=C(O)c1cccnc1C(=O)O", "answer_label": "inactive"}
{"molecule": "NC(N)=NC(=O)c1nc(Cl)c(N2CCCCCC2)nc1N", "answer_label": "inactive"}
{"molecule": "Nc1c[n+](N2CCOCC2)no1", "answer_label": "inactive"}
{"molecule": "CC(=O)Oc1cc(C(F)(F)F)ccc1C(=O)O", "answer_label": "inactive"}
{"molecule": "C[N+](C)(C)CCO", "answer_label": "inactive"}

Request: Record request — test call for CC(C(=O)O)c1cccc(C(=O)c2ccccc2)c1 (stereo not drawn)
Response: inactive

Request: Record request — test call for `O=C(/C=C/c1ccc(O)cc1)c1ccc(O)cc1O`
Response: inactive

Request: Record request — test call for `CC1=C(/C=C/C(C)=C/C=C/C(C)=C/C(=O)Nc2ccc(O)cc2)C(C)(C)CCC1`
Response: active

----------
# protocol_details: growth inhibition of DIPG glioma cells, dose response, cell-based, SU-DIPG-IV, MIPE4.0, CellTiter-Glo, qHTS (AID 1347063);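 note: compound exposure lasted 48 hours before the viability readout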
# test_settings: SU-DIPG-IV viability, CellTiter-Glo ATP luminescence
Results filed as inconclusive are left out. Calls of active or inactive are those of the source. The limit is not given here; nearly all actives have AC50 up to about 30 µM.
Output constraint: value belongs to yes (active), no (inactive)

Before answering, review these 4 worked examples.
{"structure": "O=C(NOCC1CC1)c1ccc(F)c(F)c1Nc1ccc(I)cc1Cl", "answer_label": "yes"}
{"structure": "CCN[C@H]1C[C@H](C)S(=O)(=O)c2sc(S(N)(=O)=O)cc21", "answer_label": "no"}
{"structure": "NC(=O)c1cccnc1", "answer_label": "no"}
{"structure": "COc1ccc2cc([C@H](C)C(=O)O)ccc2c1", "answer_label": "no"}

Request: Record request — test call for `C[C@H](CCC(=O)O)[C@H]1CC[C@H]2[C@@H]3[C@@H](O)C[C@@H]4C[C@H](O)CC[C@]4(C)[C@H]3CC[C@]12C`
Response: no

Data provenance is PubChem BioAssay.
